For each record, write down the corresponding logP.
- PROCEDURE TEXT: method code SF-AS, from DOI: 10.1039/ft9959100995
The answer should be written as a number, with no unit following it.

// fetch logP given entry `CC(=O)Nc1ncc2ncn(COCCO)c2n1` -1.33

Provide measured logP value, entry: `CC(=O)OCCOCn1cnc2c(=O)[nH]c(N)nc21` -1.07

----------
QUANTITY KIND: logP
Give only the figure.

Output logP of `S=C=Nc1ccc(Br)cc1` 4.03

----------
QUANTITY KIND: logP
Answer with a number only.

Quickly give me recorded logP for `CC(=O)O[C@]1(C(C)=O)CC[C@H]2[C@@H]3CCC4=CC(=O)CC[C@]4(C)[C@H]3CC[C@@]21C` 3.79

----------
- PROCEDURE TEXT: method code SF-HPLC, from DOI: 10.1016/0168-3659(92)90067-2
QUANTITY KIND: logP
Enter a number only.

Look up and state reported logP for CC(=O)NC(Cc1ccc(O)cc1)C(N)=O (configuration not stated) -0.7

Item `COc1ccc(C[C@H](NC(C)=O)C(=O)N[C@H](Cc2ccc(OC)cc2)C(N)=O)cc1` : provide logP 1.19

----------
- PROCEDURE TEXT: method code SF-RC, from DOI: 10.1016/j.bmc.2006.11.022, PMID: 17293116
- PARTICULARS: pH 7.4
QUANTITY KIND: logD

Specify measured logD for `CNc1ccc(-c2nc3ccc(-c4nc5ccc(Cl)cc5s4)cc3s2)cc1` . 3.05

Identify logD associated with the compound `CNc1ccc(-c2nc3ccc(-c4nc5ccccc5s4)cc3s2)cc1` 2.34

Dear colleague, please send me the reported logD for `CN(C)c1ccc(-c2nc3ccc(-c4nc5ccc(F)cc5s4)cc3s2)cc1` when you can. 2.99

----------
- PROCEDURE TEXT: method code SF-AS, from DOI: 10.1211/0022357001777513, PMID: 11186244
- PARTICULARS: pH 7.3
QUANTITY KIND: logD
Answer using only a numeral; do not append any unit.

Report logD for OCC(O)COc1cccc(-c2c3nc(c(-c4cccc(OCC(O)CO)c4)c4ccc([nH]4)c(-c4cccc(OCC(O)CO)c4)c4nc(c(-c5cccc(OCC(O)CO)c5)c5ccc2[nH]5)C=C4)C=C3)c1 (centres undefined) 4.83

Specify measured logD for OCC(O)COc1c(F)cc(-c2c3nc(c(-c4cc(F)c(OCC(O)CO)c(F)c4)c4ccc([nH]4)c(-c4cc(F)c(OCC(O)CO)c(F)c4)c4nc(c(-c5cc(F)c(OCC(O)CO)c(F)c5)c5ccc2[nH]5)C=C4)C=C3)cc1F (centres undefined) . 2.61

Tell me measured logD for OCC(O)COc1cccc(-c2c3nc(c(-c4cccc(OCC(O)CO)c4F)c4ccc([nH]4)c(-c4cccc(OCC(O)CO)c4F)c4nc(c(-c5cccc(OCC(O)CO)c5F)c5ccc2[nH]5)C=C4)C=C3)c1F (centres undefined) please. 2.65

Item `Oc1ccc(-c2c3nc(c(-c4ccc(O)cc4)c4ccc([nH]4)c(-c4ccc(O)cc4)c4nc(c(-c5ccc(O)cc5)c5ccc2[nH]5)C=C4)C=C3)cc1` : provide logD 4.77

----------
QUANTITY KIND: logP
Reply with just the number.

Find the measured logP of O=C(OCC1C2CC3CCC1N3CC2=Cc1ccc(I)c(Cl)c1)c1ccccc1 (stereo unspecified) and report it. 6.41

----------
Field: logP. Provide a value for each of the molecules that follow.
Answer as a number with no unit attached.

Give the reported logP for this molecule. `c1ccc2c(c1)ccc1nc3ccc4ccccc4c3cc12` 5.31

Indicate its recorded logP; the molecule in question is `c1ccc2c(c1)ccc1nc3c(ccc4ccccc43)cc12` 5.38

Fill in reported logP for this entry: `c1cnc2c(c1)cc1ccc3cccc4ccc2c1c34` 5.35

Input `c1ccc2c(c1)Cc1cccnc1-2` , output reported logP. 2.78

Please list logP recorded for the molecule `c1ccc2c(c1)cnc1ccccc12` 3.3

Write down logP measured for item `c1ccc2nc3ccc4ccccc4c3cc2c1` 4.27

----------
- PROCEDURE TEXT: method code SF, from DOI: 10.1021/jm00167a034, PMID: 2329572
- PARTICULARS: pH 7.4
I'd be grateful if you could share measured logD for these entries.
No unit in the answer, please; the number alone is enough.

Using known records, supply logD for Cc1cn(C2CC(N=[N+]=[N-])C(COC(=O)C(N)Cc3ccc(O)cc3)O2)c(=O)[nH]c1=O (configuration not stated) -0.03

Report logD for `Cc1cn([C@H]2C[C@H](N=[N+]=[N-])[C@@H](COC(=O)c3cccnc3)O2)c(=O)[nH]c1=O` 0.2

----------
- PROCEDURE TEXT: method code SF-HPLC, from DOI: 10.1023/a:1007522626070, PMID: 10714611
- PARTICULARS: pH 7.4
QUANTITY KIND: logD
Give the figure by itself; no unit, no explanation.

Tell me measured logD for CCn1nnc(C2=CCC[N+](C)([O-])C2)n1 (stereo unspecified) please. -1.5

----------
- PROCEDURE TEXT: method code SF-AS, from DOI: 10.1016/j.ejmech.2015.02.036, PMID: 25728022
- PARTICULARS: pH 7.4
QUANTITY KIND: logD
Quick one: just the number, no unit, thanks!

Give the value of logD reported for the following: `C=CCn1c(C)nc2cc(Nc3nc(N4CCOCC4)nc4[nH]cnc34)ccc21` 1.59

----------
- PROCEDURE TEXT: method code SF-AS, from Frater-Schröder, M.; Alder, S.; Zbinden, G. (1976). Neurotoxic effects of pyridoxine and analogs in rats. Proc. Eur. Soc. Toxicol, 17, 277-284.
- PARTICULARS: pH 7.4
Please respond with reported logD for every item in the list.
Please give only the number in your answer, with no unit.

Item `Cc1ncc(CO)c(C=O)c1O` : provide logD -0.82

Look up and report measured logD for this entry: `Cc1ncc(CO)c(CO)c1O` -0.77

----------
Please go through the items and note down their logP.
// no unit string in output, number only

Respond only with logP recorded for CCC1C[C@H]2[C@@H]3CCC4=CC(=O)CC[C@@H]4[C@H]3CC[C@]2(C)C1C(=O)CO (some centres not stated) 4.21

Please look at this compound and report its logP: CCC1C[C@H]2[C@@H]3CCC4=CC(=O)CC[C@@H]4[C@H]3CC[C@]2(C)[C@H]1C(=O)CF (some centres not stated) 4.41

----------
- PROCEDURE TEXT: method code SF-HPLC, from DOI: 10.1002/jps.2600750520, PMID: 3735094
- PARTICULARS: pH 4.0
QUANTITY KIND: logD
Form: value (number only, do not type unit).

In one line, give reported logD of the entry `O=C(OCCCl)n1cc(F)c(=O)[nH]c1=O` . 0.02

----------
- PROCEDURE TEXT: method code SF-AS, from DOI: 10.1002/ps.2780370107
- PARTICULARS: pH 0.0
QUANTITY KIND: logD

Give reported logD value for `CCOP(=O)(O)Cc1ccc(F)cc1` 1.25

Answer with reported logD of `CCOP(=O)(O)Cc1ccc(-c2ccccc2)cc1` 2.37

Provide only the value of recorded logD for `CCOP(=O)(O)Cc1ccccc1` 0.81

Give logD for `CCOP(=O)(O)Cc1ccc(S(C)(=O)=O)cc1` -0.4

----------
Would you kindly list logP for each of these compounds?
// response body must contain only the number

# return recorded logP for input `OCCOc1cccc2ccccc12` 2.5

Provide only the value of recorded logP for `O=C(O)CCCOc1cccc2ccccc12` 3.5

Please report logP for the following compound: `O=C(O)CCCCOc1cccc2ccccc12` 4

Determine from records and report logP for `O=C(O)CCCCCOc1cccc2ccccc12` 4.5

Specify reported logP for the compound shown: `COC(=O)c1ccccc1S(=O)(=O)NC(=O)Nc1nc(C)cc(C)n1` 1.3

----------
Exercise: for every item that follows, state its recorded logP.
- PROCEDURE TEXT: method code SF, from DOI: 10.1021/jm00294a005, PMID: 5000561

Consider the compound `CCC(=O)O[C@H]1[C@H](C)O[C@@H](O[C@H]2[C@H](N(C)C)[C@@H](O)[C@H](O[C@H]3[C@@H](CC=O)C[C@@H](C)[C@@H](O)/C=C/C=C/C[C@@H](C)OC(=O)C[C@@H](O)[C@@H]3OC)O[C@@H]2C)C[C@@]1(C)O` and give its recorded logP. 1.38

Query logP for `CO[C@@H]1[C@@H](O[C@@H]2O[C@H](C)[C@@H](O[C@H]3C[C@@](C)(O)[C@@H](OC(C)=O)[C@H](C)O3)[C@H](N(C)C)[C@H]2O)[C@@H](CC=O)C[C@@H](C)[C@@H](O)/C=C\C=C/C[C@@H](C)OC(=O)C[C@H]1O` 0.88
